System: pathogenic bacteria
Assay: MIC by microdilution broth method (NCCLS M7-A4), in vitro antibacterial activity
Assay type: cell-based
Settings: Organism A: Staphylococcus aureus OC4172
parameter_measured: MIC (µg/mL)

[[record]]
compound = "NCC(F)=C1CCN(c2cc3c(cc2F)c(=O)c(C(=O)O)cn3C2CC2)CC1"
observed = 0.06

[[record]]
compound = "CNCC(C)=C1CCN(c2c(F)cc3c(=O)c(C(=O)O)cn(C4CC4)c3c2OC(F)F)CC1"
observed = 0.12

[[record]]
compound = "CNCC(C)=C1CCN(c2nc3c(cc2F)c(=O)c(C(=O)O)cn3C2CC2)CC1 [Compound 79]"
observed = 0.06

[[record]]
compound = "CNCC(Cl)=C1CCN(c2nc3c(cc2F)c(=O)c(C(=O)O)cn3C2CC2)CC1 [Compound 216]"
observed = 0.06

[[record]]
compound = "COc1c(N2CCC(=C(F)CN)CC2)c(F)cc2c(=O)c(C(=O)O)cn(C3CC3)c12"
observed = 0.12

[[record]]
compound = "CNCC(C)=C1CCN(c2nc3c(cc2F)c(=O)c(C(=O)O)cn3C2CC2)CC1 [Compound 217]"
observed = 0.25

[[record]]
compound = "CNCC(Cl)=C1CCN(c2nc3c(cc2F)c(=O)c(C(=O)O)cn3C2CC2)CC1 [Compound 215]"
observed = 0.25

[[record]]
compound = "CNCC(C)=C1CCN(c2cc3c(cc2F)c(=O)c(C(=O)O)cn3C2CC2)CC1 [Compound 219]"
observed = 0.5

[[record]]
compound = "CNCC(C)=C1CCN(c2cc3c(cc2F)c(=O)c(C(=O)O)cn3C2CC2)CC1 [Compound 218]"
observed = 0.12

[[record]]
compound = "COc1c(N2CCC(=C(C)CN)CC2)c(F)cc2c(=O)c(C(=O)O)cn(C3CC3)c12"
observed = 0.03

